# System Tested: ATP-binding cassette sub-family B member 6 (Homo sapiens)
# Test: blockers of ABCB6-driven porphyrin uptake – K562-ABCB6 cells, flow cytometry, cherry pick 1, confirmation (AID 602430);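 also: median porphyrin fluorescence at 575 nm with 488 nm excitation from mitochondria; lower ratio means less porphyrin signal so ABCB6 inhibition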
# Measurement Context: K562-ABCB6 porphyrin accumulation, 1 h, at 10 µM, hits give low values
The other results are listed elsewhere or left out.
Quantity Name: ratio response (% of DMSO) (%)
One number for each entry, in %.

Worked cases, answers included:
>>> df
                                   molecule               quantity_name  endpoint_result
0     COc1ccc(CCNS(=O)(=O)c2ccc(F)cc2)cc1OC  ratio response (% of DMSO)              101
1  Cc1ccccc1OCC(=O)Nc1nnc(S(=O)(=O)N2CCCC2)s1  ratio response (% of DMSO)              101
2  CCn1c(COc2ccccc2)nnc1SCC(=O)Nc1ccc2c(c1)OCCO2  ratio response (% of DMSO)               97

Now consider the entry below.
Just so you know, measured ratio response (% of DMSO) for Cc1ccc2nc3c(cc(C(=O)NCCc4ccccc4)c(=N)n3CC3CCCO3)c(=O)n2c1 (centres undefined) came out at 102

Value source: PubChem BioAssay AID602430
